System: EKVX NSCLC
method_summary: NCI tumour cell line growth inhibition, 48 h

compound	tested_target	relation_symbol	TGI / µM
C1=C\COCc2cc(ccc2OCCN2CCCC2)Nc2nccc(n2)-c2cccc(c2)COC/1	EKVX NSCLC	=	7.73
COC(=O)[C@H](Cc1c[nH]c2ccccc12)NC(=O)c1ccc(CNC(=O)/C(C)=C/c2ccccc2)cc1	EKVX NSCLC	>	100
N#Cc1c(N/N=C/c2ccc(Cl)cc2Cl)nc(N)nc1N1CCCC1	EKVX NSCLC	>	100
O[C@H](c1cc(C(F)(F)F)nc2c(C(F)(F)F)cccc12)[C@@H]1CCCCN1	EKVX NSCLC	=	17.3
CC1COC(C)(C)P(=O)(c2ccccc2)C1 (stereo not drawn)	EKVX NSCLC	>	100
CC(=O)O/C(=C1\C[C@H]2[C@@H]3CC=C4C[C@@H](OC(C)=O)CC[C@]4(C)[C@H]3CC[C@]2(C)C1=O)C(F)(F)F	EKVX NSCLC	=	37.9
Cc1ccccc1N/C(=C(/C(Cl)=C(Cl)Cl)[N+](=O)[O-])n1nnc2ccccc21	EKVX NSCLC	=	40.9
CCC(C)C1NC(=O)C(NC(=O)c2c3[nH]c4c(C(=O)NC5C(=O)NC(C(C)CC)C(=O)N6CCCC6C(=O)N(C)CC(=O)N(C)C(C(C)C)C(=O)OC5C)ccc(C)c4oc-3c(C)c(=O)c2=O)C(C)OC(=O)C(C(C)C)N(C)C(=O)CN(C)C(=O)C2CCCN2C1=O (stereo not drawn)	EKVX NSCLC	>	100

Data provenance is PubChem BioAssay (NCI).
